# System: Galium (catchweed bedstraw, Galium aparine)
# PROCEDURE_TEXT: Test A postemergence
# Type: in vivo
# RECORDED_CONDITIONS: 500 g ai/ha, postemergence; 0 to 100 scale, 0 no effect, 100 complete control
VALUE_TYPE: Plant response rating, Galium

| COMPOUND | VALUE_TYPE | READING |
| --- | --- | --- |
| CN1CC(c2ccc3c(c2)OC(F)(F)O3)C(C(=O)Nc2ccccc2F)C1=O (stereo not drawn) [Compound 441] | Plant response rating, Galium | 50 |
| O=C1NCC(c2ccc(Br)cc2)C1C(=O)Nc1cccc(F)c1 (stereo not drawn) [Compound 449] | Plant response rating, Galium | 50 |

Let us move to another entry and its Plant response rating, Galium.
The compound identified as Cc1ccc(C2CNC(=O)C2C(=O)Nc2ccccc2F)cc1F (racemic) [Compound 368] registered its Plant response rating, Galium at 50
